The reported measurements were obtained from patent US11420934B2.

Each item that follows carries a reported pEC50.
# targetOrSystem: PPARδ (Homo sapiens)
# Construct: expressed in transfected cells; host or cells: PathHunter NHR cell lines
# Sequence (Q03181 1-441): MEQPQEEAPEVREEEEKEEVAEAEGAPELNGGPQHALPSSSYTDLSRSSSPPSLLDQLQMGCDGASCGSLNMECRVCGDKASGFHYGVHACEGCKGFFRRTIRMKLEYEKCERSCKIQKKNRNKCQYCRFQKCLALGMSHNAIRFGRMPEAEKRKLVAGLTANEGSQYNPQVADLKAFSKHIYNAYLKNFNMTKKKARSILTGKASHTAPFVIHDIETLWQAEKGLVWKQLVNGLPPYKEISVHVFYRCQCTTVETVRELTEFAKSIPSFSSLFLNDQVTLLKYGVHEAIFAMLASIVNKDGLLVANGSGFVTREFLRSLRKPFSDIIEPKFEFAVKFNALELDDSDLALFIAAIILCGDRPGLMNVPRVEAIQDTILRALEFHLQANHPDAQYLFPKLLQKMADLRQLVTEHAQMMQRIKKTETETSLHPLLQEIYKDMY
# measurementDescription: Nuclear Hormone Receptor (NHR) protein interaction assay (PathHunter), agonist format
# Format: cell-based
pEC50: −log10 of the molar value.
quantityMeasured: pEC50

CC(C)N(Cc1ccccc1OCCCCCC(=O)O)C(=O)c1ccc(-c2ccco2)cn1 | 6.69
O=C(O)CCCCCOc1ccccc1CN(CC(F)(F)F)C(=O)c1ccc(-c2ccco2)cc1 | 7.92
CC(C)N(Cc1ccccc1OCCCOCC(=O)O)C(=O)c1ccc(-c2ccco2)cc1 | 5.89
CC(C)N(Cc1ccccc1OCCCCCC(=O)O)C(=O)c1cnc(-c2ccco2)s1 | 6.84
